- System: CEM cells HIV-1 protection, formazan growth assay
- Protocol description: NCI AIDS Antiviral Assay
Where a SMILES comes first, the peptide text is derived from it. Bridges are numbered along the chain shown (N, C = ends).
Readout kind: EC50

compound="CC12OC3(C)c4ccccc4OP3(c3ccccc3)(Oc3ccccc31)O2 (centres undefined)" tgt="CEM cells HIV-1 protection, formazan growth assay" readout_kind=EC50 result="> 79.4 µM"
compound=C[N+](C)([O-])Cc1cccc(NC(=O)c2ccc(C(=O)Nc3cccc(C[N+](C)(C)[O-])c3)cc2)c1 tgt="CEM cells HIV-1 protection, formazan growth assay" readout_kind=EC50 result="> 200 µM"
compound=CC1=NN(C(=O)Cc2ccccc2)C(=O)/C1=C\c1ccc(O)cc1 tgt="CEM cells HIV-1 protection, formazan growth assay" readout_kind=EC50 result="> 16.2 µM"
compound="Nn1ccc(=O)c2c1-c1ccccc1C(c1ccccc1)c1ccccc1-2 (centres undefined)" tgt="CEM cells HIV-1 protection, formazan growth assay" readout_kind=EC50 result="> 200 µM"
compound=Cc1cccc(NC(=O)/C=C/c2ccc(N(CCC#N)CCC#N)cc2C)c1 tgt="CEM cells HIV-1 protection, formazan growth assay" readout_kind=EC50 result="> 676 µM"
compound="CC(=O)CC1=C(OC(C)C)C2(OCCO2)C1O (centres undefined)" tgt="CEM cells HIV-1 protection, formazan growth assay" readout_kind=EC50 result="> 200 µM"
compound="CCC(C)C1NC(=O)C2CCCN2C(=O)C(Cc2ccc(O)cc2)NC(=O)C(CC(N)=O)NC(=O)C(CCC(N)=O)NC(=O)C(CO)NC(=O)C(C(C)C)NC(=O)C(N)CSSCC(C(=O)O)NC(=O)C(CCC(N)=O)NC(=O)C(C(C)C)NC1=O (centres undefined) (H-CVSQNYPIVQC-OH; disulfide 1-11; configuration not given here)" tgt="CEM cells HIV-1 protection, formazan growth assay" readout_kind=EC50 result="> 50.1 µM"
compound=COc1ccccc1/C=C/C(=O)O tgt="CEM cells HIV-1 protection, formazan growth assay" readout_kind=EC50 result="> 525 µM"
compound=O=C(O)Cn1ccc(=O)c2cc([N+](=O)[O-])ccc21 tgt="CEM cells HIV-1 protection, formazan growth assay" readout_kind=EC50 result="> 200 µM"
compound=COc1cc2c(cc1OC)C1Cc3cc(OC)c(OC)cc3C(C2)N1C tgt="CEM cells HIV-1 protection, formazan growth assay" readout_kind=EC50 result="> 708 µM"
compound=O=c1[nH]c2cc(Cl)ccc2n1C1CCN(CCCC(c2ccc(F)cc2)c2ccc(F)cc2)CC1 tgt="CEM cells HIV-1 protection, formazan growth assay" readout_kind=EC50 result="> 200 µM"
compound=Cc1cc(N(CCC#N)S(=O)(=O)c2ccccc2)ccc1C=O tgt="CEM cells HIV-1 protection, formazan growth assay" readout_kind=EC50 result="> 110 µM"
compound=O=C(OCCO)c1c(Cl)c(Cl)c(Cl)c(Cl)c1-c1c2cc(Br)c(=O)c(Br)c-2oc2c(Br)c(O)c(Br)cc12 tgt="CEM cells HIV-1 protection, formazan growth assay" readout_kind=EC50 result="> 61.7 µM"
compound=CCCCn1cnnc1NS(=O)(=O)c1cc(C)c(Cl)cc1SCC(=O)O tgt="CEM cells HIV-1 protection, formazan growth assay" readout_kind=EC50 result="> 200 µM"
compound=NS(=O)(=O)c1ccc(NC(=O)Cc2nc3ccccc3s2)cc1 tgt="CEM cells HIV-1 protection, formazan growth assay" readout_kind=EC50 result="> 195 µM"
compound=C#CCn1c(=O)c2ccccc2n(CC#C)c1=O tgt="CEM cells HIV-1 protection, formazan growth assay" readout_kind=EC50 result="> 200 µM"
compound=CC(=O)C(=Cc1cccc(Cl)c1)C(C)=O tgt="CEM cells HIV-1 protection, formazan growth assay" readout_kind=EC50 result="> 162 µM"
compound=COc1ccc(-n2c(N)c(C#N)c(C#N)c2-c2ccccc2)cc1 tgt="CEM cells HIV-1 protection, formazan growth assay" readout_kind=EC50 result="> 200 µM"
compound=O=c1c2ccccc2c(=O)c2c1cc(Cl)c1[nH]c3c([nH]c12)c(Cl)cc1c(=O)c2ccccc2c(=O)c13 tgt="CEM cells HIV-1 protection, formazan growth assay" readout_kind=EC50 result="> 7.41 µM"
